- Test system: human orexin-2 receptor (Homo sapiens (Human))
- Sequence (O43614 whole entry): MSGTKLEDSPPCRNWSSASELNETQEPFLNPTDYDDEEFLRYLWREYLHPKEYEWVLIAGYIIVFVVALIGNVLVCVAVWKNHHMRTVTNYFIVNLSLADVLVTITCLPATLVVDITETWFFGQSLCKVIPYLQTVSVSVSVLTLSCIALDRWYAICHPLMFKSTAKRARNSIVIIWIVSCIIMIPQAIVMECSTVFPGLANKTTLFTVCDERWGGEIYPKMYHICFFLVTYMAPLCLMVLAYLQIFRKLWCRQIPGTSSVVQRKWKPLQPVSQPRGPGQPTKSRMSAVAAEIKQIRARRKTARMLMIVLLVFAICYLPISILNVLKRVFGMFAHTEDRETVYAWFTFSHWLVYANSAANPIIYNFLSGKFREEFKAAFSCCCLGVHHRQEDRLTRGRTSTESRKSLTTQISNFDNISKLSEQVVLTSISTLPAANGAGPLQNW
- Experiment notes: Intracellular calcium measurements (FLIPR), antagonism of orexin-A response
- Assay type: cell-based
- Condition description: CHO cells expressing human orexin-2 receptor, 3 nM orexin-A, geometric mean if determined several times, read-out: IC50 OX2
Exercise: state measured IC50 for each of the molecules provided.
Give bare numbers, in nM.

Query: Param item = Cc1nc(C(=O)N2CC[C@H]2c2nc(-c3ccccc3OC(F)(F)F)no2)c(-c2ccccc2C)s1 ; retrieve measured IC50.
Result: 416

Query: Param item = Cc1cc(-n2nccn2)c(C(=O)N2CC[C@H]2c2noc(-c3ccccc3OC(F)(F)F)n2)cc1Cl ; retrieve measured IC50.
Result: 6

Query: Param item = Cc1ccc(-c2ccccc2)c(C(=O)N2CC[C@H]2c2nnc(-c3ccccc3OC(F)(F)F)[nH]2)c1 ; retrieve measured IC50.
Result: 39

Query: Param item = Cc1ccc(-n2nccn2)c(C(=O)N2CC[C@H]2c2nc(-c3ccccc3OC(F)(F)F)no2)c1 ; retrieve measured IC50.
Result: 15

Query: Param item = Cc1c(Cl)cccc1-c1noc([C@@H]2CCN2C(=O)c2ccccc2-n2nccn2)n1 ; retrieve measured IC50.
Result: 74

Query: Param item = COc1c(Cl)cccc1-c1nnc([C@@H]2CCN2C(=O)c2cc(C)ccc2-n2nccn2)[nH]1 ; retrieve measured IC50.
Result: 170

Report IC50 for every entry below.
1. COc1cc(C(=O)N2CC[C@H]2c2noc(-c3cccc(Cl)c3C)n2)c(-n2nccn2)cc1C
2. CCOc1c(F)cccc1-c1noc([C@@H]2CCN2C(=O)c2cc(C)ccc2-n2nccn2)n1
3. Cc1c(Cl)cccc1-c1nc([C@@H]2CCN2C(=O)c2cc(F)ccc2-c2ncccn2)no1
4. CCOc1ncccc1-c1noc([C@@H]2CCN2C(=O)c2cc(C)c(C)cc2-n2nccn2)n1
5. CN(C)c1nc(C(=O)N2CC[C@H]2c2nc(-c3ccccc3OC(F)(F)F)no2)c(-c2ccccc2)s1
6. Cc1ccc(-n2nccn2)c(C(=O)N2CC[C@H]2c2nc(-c3cccc(Cl)c3C)no2)c1
7. COc1cc(C(=O)N2CC[C@H]2c2nnc(-c3ccccc3OC(F)(F)F)[nH]2)c(-n2nccn2)cc1Cl

Result:
2
10
122
3
10
10
5

----------
- Test system: human orexin-2 receptor (Homo sapiens (Human))
- Experiment notes: Intracellular calcium measurements (FLIPR), antagonism of orexin-A response
- Condition description: CHO cells expressing human orexin-2 receptor, 3 nM orexin-A, geometric mean if determined several times, read-out: IC50 OX2
Exercise: state measured IC50 for each of the molecules provided.
One number for each entry, in µM.

Report IC50 for every entry below.
1. CCOc1ncccc1-c1noc([C@@H]2CCN2C(=O)c2cc(OC)c(C)cc2-n2nccn2)n1 [Example 34]
2. Cc1ccc(-n2nccn2)c(C(=O)N2CC[C@H]2c2nnc(-c3ccccc3OC(F)(F)F)[nH]2)c1 [Example 125]
3. CCOc1ncccc1-c1nc([C@@H]2CCN2C(=O)c2cc(OC)c(C)cc2-n2nccn2)no1 [Example 92]
4. Cc1ccc(-n2nccn2)c(C(=O)N2CC[C@H]2c2nc(-c3ccc(F)c(F)c3)no2)c1 [Example 12]
5. CCOc1ncccc1-c1nc([C@@H]2CCN2C(=O)c2cc(C)ccc2-n2nccn2)no1 [Example 90]
6. Cc1cccc(-c2ocnc2C(=O)N2CC[C@H]2c2nc(-c3cccc(Cl)c3C)no2)c1 [Example 67]

Result:
0.005
0.056
0.001
0.187
0.002
0.631

Report IC50 for every entry below.
1. Cc1ccc(-c2ncccn2)c(C(=O)N2CC[C@H]2c2nnc(-c3ccccc3OC(F)(F)F)[nH]2)c1 [Example 135]
2. CCOc1ncccc1-c1nc([C@@H]2CCN2C(=O)c2cc(C)c(C)cc2-n2nccn2)no1 [Example 91]
3. Cc1ccc(-c2sc(C)nc2C(=O)N2CC[C@H]2c2nc(-c3ccccc3OC(F)(F)F)no2)cc1 [Example 44]
4. COc1c(F)cccc1-c1noc([C@@H]2CCN2C(=O)c2ccc(C)cc2-n2nccn2)n1 [Example 19]
5. COc1cc(C(=O)N2CC[C@H]2c2nc(-c3cccc(F)c3OC)no2)c(-n2nccn2)cc1C [Example 17]
6. Cc1ccc(-n2nccn2)c(C(=O)N2CC[C@H]2c2nc(-c3cccnc3OC3CCC3)no2)c1 [Example 35]

Result:
1: 0.348; 2: 0.0006; 3: 0.073; 4: 0.009; 5: 0.009; 6: 0.071

Report IC50 for every entry below.
1. CCOc1ncccc1-c1noc([C@@H]2CCN2C(=O)c2cc(C)ccc2-n2nccn2)n1 [Example 30]
2. Cc1ccc(-c2ncccn2)c(C(=O)N2CC[C@H]2c2noc(-c3cccc(Cl)c3C)n2)c1 [Example 117]

Result:
[0.01, 0.032]

Report IC50 for every entry below.
1. Cc1ccc(C(=O)N2CC[C@H]2c2nc(-c3cccc(Cl)c3C)no2)c(-n2nccn2)c1 [Example 78]
2. Cc1cc(C(=O)N2CC[C@H]2c2nc(-c3ccccc3OC(F)(F)F)no2)c(-n2nccn2)cc1C [Example 18]
3. Cc1cccc(-c2sc(C)nc2C(=O)N2CC[C@H]2c2nc(-c3ccccc3OC(F)(F)F)no2)c1 [Example 38]
4. COc1cc(C(=O)N2CC[C@H]2c2nc(-c3cccc(Cl)c3C)no2)c(-n2nccn2)cc1C [Example 28]
5. COc1cccc(-c2noc([C@@H]3CCN3C(=O)c3cc(C)ccc3-n3nccn3)n2)c1 [Example 5]

Result:
1. 0.022
2. 0.005
3. 0.119
4. 0.002
5. 0.025

Query: Param item = Cc1c(Cl)cccc1-c1noc([C@@H]2CCN2C(=O)c2ccc(Cl)cc2-n2nccn2)n1 [Example 76] ; retrieve measured IC50.
Result: 0.011

----------
- Test system: human orexin-2 receptor (Homo sapiens (Human))
- Experiment notes: Intracellular calcium measurements (FLIPR), antagonism of orexin-A response
- Condition description: CHO cells expressing human orexin-2 receptor, 3 nM orexin-A, geometric mean if determined several times, read-out: IC50 OX2
- Description: Antagonistic activities on both orexin receptors have been measured for each example compound using the following procedure: In Vitro Assay: Intracellular Calcium Measurements: […] Within the Fluorescent Imaging Plate Reader (FLIPR Tetra, Molecular Devices), antagonists are added to the plate in a volume of 10 μL/well, incubated for 120 min and finally 10 μL/well of agonist is added. […] The calculated IC50 values may fluctuate depending on the daily cellular assay performance. […]
Exercise: state measured pIC50 for each of the compounds provided.
Numbers only, as −log10 of the molar value.

Example entries and their recorded answers appear below.
Query: Param item = Cc1cc(-n2nccn2)c(C(=O)N2CC[C@H]2c2nc(-c3cccc(Cl)c3C)no2)cc1Cl ; retrieve measured pIC50.
Result: 8.00

Query: Param item = O=C(c1ccccc1-c1ccccc1)N1CC[C@H]1c1nc(-c2ccccc2OC(F)(F)F)no1 ; retrieve measured pIC50.
Result: 8.00

Query: Param item = O=C(c1ccc(Cl)cc1-n1nccn1)N1CC[C@H]1c1nnc(-c2ccccc2OC(F)(F)F)[nH]1 ; retrieve measured pIC50.
Result: 7.80

Query: Param item = Cc1nc(C(=O)N2CC[C@H]2c2nc(-c3cccc(Cl)c3C)no2)c(-c2ccccc2F)s1 ; retrieve measured pIC50.
Result: 6.66

Query: Param item = COc1cc(C(=O)N2CC[C@H]2c2noc(-c3cccc(Cl)c3OC)n2)c(-n2nccn2)cc1C ; retrieve measured pIC50.
Result: 9.15

Query: Param item = COc1cc(C(=O)N2CC[C@H]2c2nc(-c3cccc(Cl)c3C)no2)c(-n2nccn2)cc1F ; retrieve measured pIC50.
Result: 7.60

Query: Param item = COc1cc(C(=O)N2CC[C@H]2c2nc(-c3cccc(F)c3OC)no2)c(-n2nccn2)cc1F ; retrieve measured pIC50.
Result: 7.59

Query: Param item = COc1ccccc1-c1noc([C@@H]2CCN2C(=O)c2cc(C)ccc2-n2nccn2)n1 ; retrieve measured pIC50.
Result: 7.42

Report pIC50 for every entry below.
1. CCOc1ncccc1-c1nc([C@@H]2CCN2C(=O)c2cc(Cl)c(C)cc2-n2nccn2)no1
2. Cc1cc(C(=O)N2CC[C@H]2c2noc(-c3cccc(F)c3C)n2)c(-n2nccn2)cc1C
3. Cc1cccc(-c2noc([C@@H]3CCN3C(=O)c3cc(C)ccc3-n3nccn3)n2)c1

Result:
[9.00, 8.52, 7.40]

Report pIC50 for every entry below.
1. Cc1c(Cl)cccc1-c1nc([C@@H]2CCN2C(=O)c2ccc(Cl)cc2-n2nccn2)no1
2. COc1c(F)cccc1-c1noc([C@@H]2CCN2C(=O)c2cc(C)ccc2-n2nccn2)n1

Result:
7.89
7.77

Report pIC50 for every entry below.
1. COc1cc(C(=O)N2CC[C@H]2c2noc(-c3ccccc3OC(F)(F)F)n2)c(-n2nccn2)cc1F
2. Cc1cccc(-c2scnc2C(=O)N2CC[C@H]2c2nc(-c3cccc(Cl)c3C)no2)c1
3. COc1c(Cl)cccc1-c1nc([C@@H]2CCN2C(=O)c2ccc(Cl)cc2-n2nccn2)no1
4. Cc1ccc(-n2nccn2)c(C(=O)N2CC[C@H]2c2noc(-c3cccc(F)c3C)n2)c1
5. Cc1ccc(-n2nccn2)c(C(=O)N2CC[C@H]2c2nnc(-c3cccc(Cl)c3C)[nH]2)c1

Result:
1. 7.11
2. 6.62
3. 8.40
4. 8.10
5. 6.62

Report pIC50 for every entry below.
1. COc1cc(C(=O)N2CC[C@H]2c2nc(-c3cccc(F)c3C)no2)c(-n2nccn2)cc1C
2. COc1cc(C(=O)N2CC[C@H]2c2noc(-c3cccc(Cl)c3C)n2)c(-n2nccn2)cc1Cl

Result:
8.40
8.70
